MEASURED_TARGET: Human C5 (Homo sapiens, UniProt P01031)
Construct: purchased Complement Technology
ASSAY_EXPLANATION: Red blood cell (RBC) hemolysis assay, luminescent (Example 13, Table 22); further: 1.5% C5-depleted human serum
Assay type: cell-based
EXPERIMENTAL_SETUP: sheep EA cells, […] C5-depleted human serum, 0.5 nM human C5, 1 hour 37° C., luminescence
Simple rule here: IC50 less than 30 nM is Yes, otherwise No.

> print(dat)
                                smiles.code  group.label
1  CCCCCOc1cc(N2CCN(Cc3ccnc4c3ccn4CC(=O)N3CCOCC3)C2=O)ccc1OC           No
2  CCCCCOc1cc(N2CCCN(Cc3ccc(CCO)cc3OC)C2=O)ccc1OC           No
3  CCCCCOc1cc(N2CCCN(Cc3ccc(F)cc3OC)C2=O)ccc1OC           No
4  CCCCCOc1cc(N2CCCN(Cc3ccc(Cc4nnn(C)n4)cc3OC)C2=O)ccc1OC          Yes
5  CCCCCOc1cc(N2CCCN(Cc3ccc(Cc4ncco4)cc3OC)C2=O)ccc1OC           No
6  CCCCCOc1cc(N2CCCN(Cc3cccc4c3ccn4CC(=O)N3CCNC(=O)C3)C2=O)ccc1OC          Yes
7  CCCC(F)(F)COc1cc(N2CCCN(Cc3ccc(CC(=O)N4CCCOCC4)cc3OC)C2=O)ccc1OC          Yes

###

Recorded pIC50, one value per entry.
MEASURED_TARGET: purified human C5 (Homo sapiens, UniProt P01031)
Sequence (P01031 19-1676): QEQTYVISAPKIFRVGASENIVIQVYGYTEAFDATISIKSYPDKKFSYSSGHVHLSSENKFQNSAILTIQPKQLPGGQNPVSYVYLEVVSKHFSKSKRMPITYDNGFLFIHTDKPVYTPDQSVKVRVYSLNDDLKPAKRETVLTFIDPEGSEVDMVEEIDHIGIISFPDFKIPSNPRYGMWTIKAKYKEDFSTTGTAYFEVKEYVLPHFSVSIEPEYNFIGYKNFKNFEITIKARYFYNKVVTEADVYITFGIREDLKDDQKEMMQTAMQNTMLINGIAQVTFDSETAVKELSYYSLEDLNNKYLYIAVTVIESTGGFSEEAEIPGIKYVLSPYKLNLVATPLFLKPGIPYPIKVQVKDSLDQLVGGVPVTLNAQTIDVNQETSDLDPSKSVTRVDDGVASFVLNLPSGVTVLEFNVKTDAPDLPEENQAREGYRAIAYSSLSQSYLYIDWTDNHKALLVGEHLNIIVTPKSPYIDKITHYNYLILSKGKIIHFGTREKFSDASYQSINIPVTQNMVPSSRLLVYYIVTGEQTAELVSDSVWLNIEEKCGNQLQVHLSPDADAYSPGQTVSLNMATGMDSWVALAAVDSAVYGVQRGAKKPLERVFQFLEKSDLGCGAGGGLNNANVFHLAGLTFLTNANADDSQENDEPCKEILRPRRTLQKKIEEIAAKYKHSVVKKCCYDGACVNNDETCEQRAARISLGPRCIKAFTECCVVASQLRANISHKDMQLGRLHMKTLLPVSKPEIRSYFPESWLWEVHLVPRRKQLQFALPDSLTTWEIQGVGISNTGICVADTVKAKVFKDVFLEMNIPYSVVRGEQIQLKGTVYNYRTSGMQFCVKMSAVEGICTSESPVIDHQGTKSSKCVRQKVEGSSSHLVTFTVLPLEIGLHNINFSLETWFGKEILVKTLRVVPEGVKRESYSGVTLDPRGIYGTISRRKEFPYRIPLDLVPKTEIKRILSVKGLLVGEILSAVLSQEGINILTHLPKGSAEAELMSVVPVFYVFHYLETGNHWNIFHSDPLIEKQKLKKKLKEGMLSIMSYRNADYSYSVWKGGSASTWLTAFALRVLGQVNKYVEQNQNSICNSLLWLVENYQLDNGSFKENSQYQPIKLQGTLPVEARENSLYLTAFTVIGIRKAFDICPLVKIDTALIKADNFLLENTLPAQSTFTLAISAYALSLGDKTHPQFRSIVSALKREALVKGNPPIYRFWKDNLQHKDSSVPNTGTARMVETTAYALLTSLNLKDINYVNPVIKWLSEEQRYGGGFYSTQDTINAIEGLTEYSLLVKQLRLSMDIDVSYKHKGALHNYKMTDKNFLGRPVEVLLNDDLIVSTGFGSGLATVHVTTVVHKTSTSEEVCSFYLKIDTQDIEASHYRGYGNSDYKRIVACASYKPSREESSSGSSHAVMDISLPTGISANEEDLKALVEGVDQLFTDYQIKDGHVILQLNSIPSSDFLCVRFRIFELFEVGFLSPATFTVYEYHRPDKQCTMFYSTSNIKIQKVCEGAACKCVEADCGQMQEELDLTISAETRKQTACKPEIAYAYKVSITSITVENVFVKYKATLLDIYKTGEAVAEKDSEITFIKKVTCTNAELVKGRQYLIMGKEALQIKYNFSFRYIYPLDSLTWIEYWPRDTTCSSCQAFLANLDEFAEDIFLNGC
ASSAY_EXPLANATION: Red blood cell (RBC) hemolysis assay, optical, absorbance 412 nm (Example 10, Table 19)
Type: cell-based
EXPERIMENTAL_SETUP: antibody-sensitized sheep erythrocytes, […] human C5 depleted sera, 0.5 nM purified human C5, absorbance 412 nm; read-out: RBC Hemolysis IC50
pIC50: −log10 of the molar value.
READOUT_NAME: pIC50

> print(dat)
                                   compound  readout.name  reported
1  COc1cc(CNC(=O)c2ccccc2)c(NC(=O)NCc2ccnc3[nH]ccc23)cc1OCCCC(C)C [Compound C5INH-0510]         pIC50      6.93
2  COc1ccc(NC(=O)NC(CO)c2cc(N)ccc2OC)cc1OCCCC(C)C (stereo not shown) [Compound C5INH-0488]         pIC50      7.92
3  COc1ccc(NC(=O)N[C@H](CO)c2ccccc2)cc1C(F)C(F)CCC(C)C (stereo partly shown) [Compound C5INH-0406]         pIC50      6.17
4  COc1ccc(NC(=O)NCc2cc(F)cc3[nH]ccc23)cc1OCCCC(C)C [Compound C5INH-0517]         pIC50      6.43

###

MEASURED_TARGET: Human C5 (Homo sapiens, UniProt P01031)
Construct: purchased Complement Technology
ASSAY_EXPLANATION: Surface plasmon resonance (SPR), compounds on immobilized human C5 (Example 2, Table 5)
Format: binding
EXPERIMENTAL_SETUP: lowest value where a range of compound concentrations were analyzed
Simple rule here: Kd less than 1000 nM is label 1, otherwise label 0.

> print(dat)
                                   compound  group.label
1  COc1ccc(NC(=O)N[C@@H](CO)c2ccccc2)cc1OCCN1CCN(C)CC1      label 0
2  O=C(Nc1ccc2c(c1)OC(F)(F)O2)N[C@@H](CO)c1ccccc1      label 0
3  COc1ccc(NC(=O)N[C@@H](CO)c2ccccc2)cc1OCCCCCC(C)C      label 1
4  COc1ccc(NC(=O)N[C@@H](CO)c2ccccc2)cc1OCCC(C)C      label 0
5  COc1ccc(NC(=O)NC(CO)c2ccccc2OC)cc1OCCCC(C)C (stereo not shown)      label 1
6        COc1ccc(NC(=O)N(C)CCO)cc1OCCCC(C)C      label 0
7     COc1ccc(NC(=O)NCc2ccccc2)cc1OCCCC(C)C      label 1
8  COc1ccc(NC(=O)N[C@@H](C)c2ccccc2)cc1OCCCC(C)C      label 1
9     COc1ccc(NC(=O)NCc2ccccn2)cc1OCCCC(C)C      label 0
